test system: TK-10 renal; experiment: NCI tumour cell line growth inhibition, 48 h; in the data active = GI50 below about 0.43 µM; inactive = the rest
Labels: active, inactive

>>> class("COc1cc2nccc(Oc3ccc(NC(=O)NC4CC4)c(Cl)c3)c2cc1C(N)=O")
"inactive"
>>> class("COc1cc([C@@H]2c3cc4c(c(O)c3C[C@H]3COC(=O)[C@@H]32)OCO4)cc(OC)c1OC")
"inactive"
>>> class("CSc1ccc(-c2ccccc(=O)c2O)cc1")
"inactive"
>>> class("O=C1c2[nH]cc(CNC3CN4CCC3CC4)c2C(=O)c2c1c(O)c1ccccc1c2O (stereo not drawn)")
"active"
>>> class("c1ccc([CH2][Sn]([CH2]c2ccccc2)([O]c2cccc3cccnc23)[O]c2cccc3cccnc23)cc1")
"inactive"
>>> class("COc1ccc2sc3cccc(NCCN(C)C)c3c(=O)c2c1")
"inactive"
>>> class("Cc1cc(Cl)cc2c(N=Nc3ccc(S(N)(=O)=O)cc3)c(O)[nH]c12")
"inactive"
>>> class("COc1ccc(C(=O)Nc2ncc(Cc3cccc(Cl)c3)s2)cc1OC")
"inactive"

* * *

Reported TGI values for a set of compounds
tested on: SR leukemia; assay: NCI tumour cell line growth inhibition, 48 h
Readout Label: TGI

>>> test_result("CC1=NN(C(=O)c2ccccc2O)C(=O)/C1=C/c1cccc(O)c1")
"> 100 µM"
>>> test_result("C=CCC(N[C@@H](CO)c1ccccc1)c1cn(Cc2ccccc2Cl)c(=O)n(Cc2ccccc2Cl)c1=O (stereo not given in full)")
"> 100 µM"
>>> test_result("CC(C)(C)N1CCC1CN (stereo not given)")
"> 100 µM"
>>> test_result("C[Si](C)(C)C#Cc1cc(-c2nc3ccccc3s2)ccc1N")
"67.8 µM"
>>> test_result("COc1cc(C2S/C(=C/c3ccccc3)C(=O)N2c2ccc(NC(C)=O)cc2)cc(OC)c1OC (stereo not given)")
"> 100 µM"

* * *

test system: RXF 393 renal; assay: NCI tumour cell line growth inhibition, 48 h
Readout Label: TGI (µM)

>>> test_result("CC[C@H]1CN2CCc3cc(OC)c(OC)cc3C2C[C@@H]1CC1NCCc2cc(OC)c(OC)cc21 (some centres undefined)")
0.131
>>> test_result("O=[N+]([O-])c1ccc2nc(Cl)n[n+]([O-])c2c1")
28.7
>>> test_result("C[C@]12CCc3nc(Nc4cccc(O)c4)sc3C1=CC[C@@H]1[C@@H]2CC[C@]2(C)/C(=N\\NC(N)=S)CC[C@@H]12")
2.19
>>> test_result("COC1C(CO)OC(n2c3ccccc3c3c4c(c5c6ccccc6[nH]c5c32)C(=O)NC4=O)C(O)C1O (centres undefined)")
0.877
>>> test_result("CCCC(=O)Nc1cc(/C=C/C(=O)N2CC(CCl)c3c2cc(OCc2ccccc2)c2[nH]cc(C)c32)n(C)c1 (centres undefined)")
0.0852
>>> test_result("CCCCCCCC/C=C/CCCCCCCC1=NC(C)(C)CN1CC(C)O (centres undefined)")
3.39
>>> test_result("CO/C=C/C(=O)c1cc2cnc3c(=N)cc(NC(=O)C(C)C)c([nH]1)c23")
0.246

* * *

system: MDA-MB-435; assay: NCI tumour cell line growth inhibition, 48 h
Readout Label: TGI (µM)

>>> test_result("CCCCCCCCCCCCCCCCCCNc1ccn(C2OC(COP(=O)(O)OCC3OC(n4cc(C)c(=O)[nH]c4=O)CC3F)C(O)C2O)c(=O)n1 (stereo not given)")
38.9
>>> test_result("N=C(N)c1ccc(-c2ccc(-c3ccc(Cl)cc3Cl)o2)nc1")
3.1
